METHOD_SUMMARY: Toxicity in Salmonella typhimurium TA1537 assessed as growth inhibition after 1 hr
Assay type: organism-based
CONDITION_SUMMARY: salmonella enterica subsp. enterica serovar typhimurium, read-out: D50
Binarize GI50 at 1 h at 100 µM; below is rule met, at or above is rule not met.

For Br.CNc1ccc(Nc2c3ccccc3nc3ccccc23)cc1 , is the recorded GI50 at 1 h below the cut-off of 100 µM?
rule met

Could you do the same for CCCCCS(=O)(=O)Nc1ccc(Nc2c3ccccc3nc3ccccc23)cc1.Cl , please?
rule met

Could you do the same for CCS(=O)(=O)Nc1ccc(Nc2c3ccccc3nc3cc(NC(C)=O)ccc23)cc1.CS(=O)(=O)O , please?
rule not met

Could you do the same for CS(=O)(=O)Nc1ccc(Nc2c3ccccc3nc3ccccc23)cc1.Cl , please?
rule not met

Could you do the same for CCCCCCNc1ccc(Nc2c3ccccc3nc3ccccc23)cc1.Cl , please?
rule met

Could you do the same for CCCS(=O)(=O)Nc1ccc(Nc2c3ccccc3nc3c(C(N)=O)cccc23)c(OC)c1.Cl , please?
rule not met

Could you do the same for CCCCCCS(=O)(=O)Nc1ccc(Nc2c3ccccc3nc3cc(NC(C)=O)ccc23)cc1.CS(=O)(=O)O , please?
rule met

Could you do the same for CCCCCCS(=O)(=O)Nc1ccc(Nc2c3ccccc3nc3ccccc23)cc1.Cl , please?
rule met

Could you do the same for CCCCS(=O)(=O)Nc1ccc(Nc2c3ccccc3nc3c(C(N)=O)cccc23)c(OC)c1.Cl , please?
rule not met

Could you do the same for CCCS(=O)(=O)Nc1ccc(Nc2c3ccccc3nc3ccccc23)c(OC)c1.CS(=O)(=O)O , please?
rule met

Could you do the same for CCCCS(=O)(=O)Nc1ccc(Nc2c3ccccc3nc3ccccc23)c(OC)c1.CS(=O)(=O)O , please?
rule met

###

I'd be grateful if you could share measured GI50 at 1 h for these entries.
METHOD_SUMMARY: Toxicity in Salmonella typhimurium TA100 assessed as growth inhibition after 1 hr
Assay type: organism-based
CONDITION_SUMMARY: salmonella enterica subsp. enterica serovar typhimurium, read-out: D50

Look at this compound and give its reported GI50 at 1 h. COc1cccc2c1C(=O)c1c(O)c3c(c(O)c1C2=O)C[C@@](O)(C(C)=O)C[C@@H]3O[C@H]1C[C@H](N)[C@H](O)[C@H](C)O1
11.1 µM

Could you do the same for COc1cccc2c1C(=O)c1c(O)c3c(c(O)c1C2=O)C[C@@](O)(C(=O)CO)C[C@@H]3O[C@H]1C[C@H](N)[C@H](O)[C@H](C)O1 , please?
11.3 µM

Could you do the same for CS(=O)(=O)Nc1ccc(Nc2c3ccccc3nc3ccccc23)cc1.Cl , please?
194 µM

###

I'd be grateful if you could share measured log(M50) for these entries.
Test system: Salmonella typhimurium
METHOD_SUMMARY: Mutagenic activity in Salmonella typhimurium TA1537 assessed as mutation frequency at 10^4 times D50 after 1 hr
Assay type: toxicity, organism-based
CONDITION_SUMMARY: salmonella enterica subsp. enterica serovar typhimurium
API doc: respond with a numeric literal and nothing else, no unit.

Look at this compound and give its reported log(M50). COc1cccc2c1C(=O)c1c(O)c3c(c(O)c1C2=O)C[C@@](O)(C(=O)CO)C[C@@H]3O[C@H]1C[C@H](N)[C@H](O)[C@H](C)O1
0

Could you do the same for COc1cccc2c1C(=O)c1c(O)c3c(c(O)c1C2=O)C[C@@](O)(C(C)=O)C[C@@H]3O[C@H]1C[C@H](N)[C@H](O)[C@H](C)O1 , please?
0

Could you do the same for CCCS(=O)(=O)Nc1ccc(Nc2c3ccccc3nc3c(C(N)=O)cccc23)c(OC)c1.Cl , please?
0

Could you do the same for CCCCNc1ccc(Nc2c3ccccc3nc3ccccc23)cc1.Cl , please?
1

Could you do the same for Br.CNc1ccc(Nc2c3ccccc3nc3ccccc23)cc1 , please?
2.05

Could you do the same for CCCCS(=O)(=O)Nc1ccc(Nc2c3ccccc3nc3cc(NC(C)=O)ccc23)cc1.CS(=O)(=O)O , please?
-0.3

Could you do the same for CCCCCS(=O)(=O)Nc1ccc(Nc2c3ccccc3nc3ccccc23)cc1.Cl , please?
0.6

Could you do the same for COc1cc(NS(C)(=O)=O)ccc1Nc1c2ccccc2nc2c(C(N)=O)cccc12.Cl , please?
-0.7

Could you do the same for CCNc1ccc(Nc2c3ccccc3nc3ccccc23)cc1.Cl , please?
1.88

Could you do the same for CCCCCCS(=O)(=O)Nc1ccc(Nc2c3ccccc3nc3ccccc23)c(OC)c1.CS(=O)(=O)O , please?
0

###

METHOD_SUMMARY: Toxicity in Salmonella typhimurium TA98 assessed as growth inhibition after 1 hr
Format: organism-based
CONDITION_SUMMARY: salmonella enterica subsp. enterica serovar typhimurium, read-out: D50
I'd be grateful if you could share measured GI50 at 1 h for these entries.
Reply numerically in µM, unit not repeated.

Look at this compound and give its reported GI50 at 1 h. COc1cccc2c1C(=O)c1c(O)c3c(c(O)c1C2=O)C[C@@](O)(C(=O)CO)C[C@@H]3O[C@H]1C[C@H](N)[C@H](O)[C@H](C)O1 [DOXORUBICIN]
6.1

Could you do the same for COc1cccc2c1C(=O)c1c(O)c3c(c(O)c1C2=O)C[C@@](O)(C(C)=O)C[C@@H]3O[C@H]1C[C@H](N)[C@H](O)[C@H](C)O1 [DAUNORUBICIN] , please?
13.1

Could you do the same for CS(=O)(=O)Nc1ccc(Nc2c3ccccc3nc3ccccc23)cc1.Cl , please?
180

###

METHOD_SUMMARY: Toxicity in Salmonella typhimurium TA1537 assessed as growth inhibition after 1 hr
Assay type: organism-based
CONDITION_SUMMARY: salmonella enterica subsp. enterica serovar typhimurium, read-out: D50
MEASUREMENT_TYPE: GI50 at 1 h (µM)
Reply numerically in µM, unit not repeated.

Look at this compound and give its reported GI50 at 1 h. CCCCNc1ccc(Nc2c3ccccc3nc3ccccc23)cc1.Cl
9.8

Could you do the same for CCCCCCS(=O)(=O)Nc1ccc(Nc2c3ccccc3nc3ccccc23)c(OC)c1.CS(=O)(=O)O , please?
15.3

Could you do the same for COc1cccc2c1C(=O)c1c(O)c3c(c(O)c1C2=O)C[C@@](O)(C(=O)CO)C[C@@H]3O[C@H]1C[C@H](N)[C@H](O)[C@H](C)O1 , please?
16.3

Could you do the same for CCNc1ccc(Nc2c3ccccc3nc3ccccc23)cc1.Cl , please?
100

Could you do the same for CCCCS(=O)(=O)Nc1ccc(Nc2c3ccccc3nc3cc(NC(C)=O)ccc23)cc1.CS(=O)(=O)O , please?
148

Could you do the same for COc1cc(NS(C)(=O)=O)ccc1Nc1c2ccccc2nc2c(C(N)=O)cccc12.Cl , please?
698

Could you do the same for COc1cccc2c1C(=O)c1c(O)c3c(c(O)c1C2=O)C[C@@](O)(C(C)=O)C[C@@H]3O[C@H]1C[C@H](N)[C@H](O)[C@H](C)O1 , please?
7.4

Could you do the same for CCCS(=O)(=O)Nc1ccc(Nc2c3ccccc3nc3ccccc23)cc1.Cl , please?
50.1

Could you do the same for CCCCS(=O)(=O)Nc1ccc(Nc2c3ccccc3nc3ccccc23)cc1.Cl , please?
49.3

Could you do the same for CCCNc1ccc(Nc2c3ccccc3nc3ccccc23)cc1.Cl , please?
98.9

Could you do the same for CCS(=O)(=O)Nc1ccc(Nc2c3ccccc3nc3ccccc23)c(OC)c1.CS(=O)(=O)O , please?
93.2

Could you do the same for CCCCCS(=O)(=O)Nc1ccc(Nc2c3ccccc3nc3c(C(N)=O)cccc23)c(OC)c1.Cl , please?
466

Could you do the same for CC(=O)Nc1ccc2c(Nc3ccc(NS(C)(=O)=O)cc3)c3ccccc3nc2c1.CS(=O)(=O)O , please?
282

Could you do the same for CCCCCS(=O)(=O)Nc1ccc(Nc2c3ccccc3nc3ccccc23)c(OC)c1.CS(=O)(=O)O , please?
21.1

Could you do the same for CCS(=O)(=O)Nc1ccc(Nc2c3ccccc3nc3ccccc23)cc1.Cl , please?
81.6

Could you do the same for CCCS(=O)(=O)Nc1ccc(Nc2c3ccccc3nc3cc(NC(C)=O)ccc23)cc1.CS(=O)(=O)O , please?
114

Could you do the same for CCS(=O)(=O)Nc1ccc(Nc2c3ccccc3nc3c(C(N)=O)cccc23)c(OC)c1.Cl , please?
467

Could you do the same for CCCCCS(=O)(=O)Nc1ccc(Nc2c3ccccc3nc3cc(NC(C)=O)ccc23)cc1.CS(=O)(=O)O , please?
17.7

###

I'd be grateful if you could share measured log(M50) for these entries.
Tested on: Salmonella typhimurium
METHOD_SUMMARY: Mutagenic activity in Salmonella typhimurium TA1537 assessed as mutation frequency at 10^4 times D50 after 1 hr
Format: toxicity, organism-based
CONDITION_SUMMARY: salmonella enterica subsp. enterica serovar typhimurium
API doc: respond with a numeric literal and nothing else, no unit.

Look at this molecule and give its reported log(M50). CCCS(=O)(=O)Nc1ccc(Nc2c3ccccc3nc3cc(NC(C)=O)ccc23)cc1.CS(=O)(=O)O
0

Could you do the same for CCS(=O)(=O)Nc1ccc(Nc2c3ccccc3nc3cc(NC(C)=O)ccc23)cc1.CS(=O)(=O)O , please?
0

Could you do the same for CCS(=O)(=O)Nc1ccc(Nc2c3ccccc3nc3c(C(N)=O)cccc23)c(OC)c1.Cl , please?
0.18

Could you do the same for CCCCCS(=O)(=O)Nc1ccc(Nc2c3ccccc3nc3cc(NC(C)=O)ccc23)cc1.CS(=O)(=O)O , please?
-0.1

Could you do the same for CCCCS(=O)(=O)Nc1ccc(Nc2c3ccccc3nc3ccccc23)cc1.Cl , please?
0.78

Could you do the same for CCCCCCNc1ccc(Nc2c3ccccc3nc3ccccc23)cc1.Cl , please?
-1

Could you do the same for CCS(=O)(=O)Nc1ccc(Nc2c3ccccc3nc3ccccc23)c(OC)c1.CS(=O)(=O)O , please?
-0.3

Could you do the same for CCCCCS(=O)(=O)Nc1ccc(Nc2c3ccccc3nc3ccccc23)c(OC)c1.CS(=O)(=O)O , please?
0

Could you do the same for CCCCCS(=O)(=O)Nc1ccc(Nc2c3ccccc3nc3c(C(N)=O)cccc23)c(OC)c1.Cl , please?
0

Could you do the same for CCCS(=O)(=O)Nc1ccc(Nc2c3ccccc3nc3ccccc23)cc1.Cl , please?
1.67

Could you do the same for CCS(=O)(=O)Nc1ccc(Nc2c3ccccc3nc3ccccc23)cc1.Cl , please?
2

Could you do the same for CCCS(=O)(=O)Nc1ccc(Nc2c3ccccc3nc3ccccc23)c(OC)c1.CS(=O)(=O)O , please?
-0.7

Could you do the same for CCCCCCS(=O)(=O)Nc1ccc(Nc2c3ccccc3nc3cc(NC(C)=O)ccc23)cc1.CS(=O)(=O)O , please?
0

Could you do the same for CCCCS(=O)(=O)Nc1ccc(Nc2c3ccccc3nc3ccccc23)c(OC)c1.CS(=O)(=O)O , please?
0

Could you do the same for CCCNc1ccc(Nc2c3ccccc3nc3ccccc23)cc1.Cl , please?
1.67

Could you do the same for CCCCCCS(=O)(=O)Nc1ccc(Nc2c3ccccc3nc3ccccc23)cc1.Cl , please?
0.3

Could you do the same for CS(=O)(=O)Nc1ccc(Nc2c3ccccc3nc3ccccc23)cc1.Cl , please?
2.1

Could you do the same for CCCCS(=O)(=O)Nc1ccc(Nc2c3ccccc3nc3c(C(N)=O)cccc23)c(OC)c1.Cl , please?
0

Could you do the same for CC(=O)Nc1ccc2c(Nc3ccc(NS(C)(=O)=O)cc3)c3ccccc3nc2c1.CS(=O)(=O)O , please?
-0.22
